Source listed as ChEMBL document CHEMBL4831486.

- Test system: Staphylococcus aureus
- ASSAY SUMMARY: Antibacterial activity against Staphylococcus aureus AD3 assessed as inhibition of bacterial growth measured after 24 hrs by broth dilution method
- Type: functional

{"SMILES STRING": "C=C[C@]1(C)C[C@@H](OC(=O)CSc2nnc(C)n2/N=C/c2ccccc2C)[C@]2(C)[C@H](C)CC[C@]3(CCC(=O)[C@H]32)[C@@H](C)[C@@H]1O", "STUDY TARGET": "Staphylococcus aureus", "MIC / µg/mL": 1}
{"SMILES STRING": "C=C[C@]1(C)C[C@@H](OC(=O)CSc2nnc(C)n2/N=C/c2ccccc2)[C@]2(C)[C@H](C)CC[C@]3(CCC(=O)[C@H]32)[C@@H](C)[C@@H]1O", "STUDY TARGET": "Staphylococcus aureus", "MIC / µg/mL": 1}
{"SMILES STRING": "C=C[C@]1(C)C[C@@H](OC(=O)CSc2nnc(C)n2/N=C/c2ccc(-c3ccccn3)cc2)[C@]2(C)[C@H](C)CC[C@]3(CCC(=O)[C@H]32)[C@@H](C)[C@@H]1O", "STUDY TARGET": "Staphylococcus aureus", "MIC / µg/mL": 0.5}
{"SMILES STRING": "C=C[C@]1(C)C[C@@H](OC(=O)CSc2nnc(C)n2/N=C/c2cccc([N+](=O)[O-])c2)[C@]2(C)[C@H](C)CC[C@]3(CCC(=O)[C@H]32)[C@@H](C)[C@@H]1O", "STUDY TARGET": "Staphylococcus aureus", "MIC / µg/mL": 2}
{"SMILES STRING": "C=C[C@]1(C)C[C@@H](OC(=O)CSc2nnc(C)n2/N=C/c2ccc(N(C)C)cc2)[C@]2(C)[C@H](C)CC[C@]3(CCC(=O)[C@H]32)[C@@H](C)[C@@H]1O", "STUDY TARGET": "Staphylococcus aureus", "MIC / µg/mL": 1}
{"SMILES STRING": "C=C[C@]1(C)C[C@@H](OC(=O)CSc2nnc(C)n2/N=C/c2ccc(N3CCCC3)cc2)[C@]2(C)[C@H](C)CC[C@]3(CCC(=O)[C@H]32)[C@@H](C)[C@@H]1O", "STUDY TARGET": "Staphylococcus aureus", "MIC / µg/mL": 2}
{"SMILES STRING": "C=C[C@]1(C)C[C@@H](OC(=O)CSc2nnc(C)n2/N=C/c2cccc(O)c2)[C@]2(C)[C@H](C)CC[C@]3(CCC(=O)[C@H]32)[C@@H](C)[C@@H]1O", "STUDY TARGET": "Staphylococcus aureus", "MIC / µg/mL": 1}
{"SMILES STRING": "C=C[C@]1(C)C[C@@H](OC(=O)CSc2nnc(C)n2/N=C/c2cccc(Cl)c2)[C@]2(C)[C@H](C)CC[C@]3(CCC(=O)[C@H]32)[C@@H](C)[C@@H]1O", "STUDY TARGET": "Staphylococcus aureus", "MIC / µg/mL": 2}
{"SMILES STRING": "C=C[C@]1(C)C[C@@H](OC(=O)CSc2nnc(C)n2/N=C/c2ccc(C)cc2)[C@]2(C)[C@H](C)CC[C@]3(CCC(=O)[C@H]32)[C@@H](C)[C@@H]1O", "STUDY TARGET": "Staphylococcus aureus", "MIC / µg/mL": 1}
{"SMILES STRING": "C=C[C@]1(C)C[C@@H](OC(=O)CSc2nnc(C)n2/N=C/c2ccc(O)cc2)[C@]2(C)[C@H](C)CC[C@]3(CCC(=O)[C@H]32)[C@@H](C)[C@@H]1O", "STUDY TARGET": "Staphylococcus aureus", "MIC / µg/mL": 0.5}
{"SMILES STRING": "C=C[C@]1(C)C[C@@H](OC(=O)CSc2nnc(C)n2/N=C/c2ccc(F)cc2)[C@]2(C)[C@H](C)CC[C@]3(CCC(=O)[C@H]32)[C@@H](C)[C@@H]1O", "STUDY TARGET": "Staphylococcus aureus", "MIC / µg/mL": 1}
